- Test system: Saccharomyces cerevisiae
- experiment_description: Antimicrobial activity against Saccharomyces cerevisiae ATCC 9763 assessed as growth inhibition after 24 hr by broth microdilution method
- Type: functional
- assay_setup: ATCC 9763, 24 h
measured_endpoint: log10 of MIC (log10 of the value in µg/mL)
The common logarithm of MIC in µg/mL is what is listed.

# compound, target_of_assay, log10 of MIC
records = [
    ("O=[N+]([O-])c1ccc(-c2csc(N3N=C(c4ccccc4)CC3c3c(F)cccc3F)n2)cc1 (stereo unspecified)", "Saccharomyces cerevisiae", 2.10),
]

Reported log10 of MIC ( Fc1cccc(F)c1C1CC(c2ccccc2)=NN1c1nc(-c2cccnc2)cs1 (stereo unspecified) ) = 1.49

Measured log10 of MIC of NC(=S)N1N=C(c2ccccc2)CC1c1c(F)cccc1F (stereo unspecified) : 2.10

response.value for Cc1ccc(/C=N/NC(=O)Cc2csc(N3N=C(c4ccccc4)CC3c3c(F)cccc3F)n2)cc1 (stereo unspecified) (field: log10 of MIC) = 0.90
